Where do these numbers come from? They come from ChEMBL document CHEMBL4732209.

Catalogue of pEC50 readings, one per entry.
Target: Aryl hydrocarbon receptor (Homo sapiens, UniProt P35869)
Sequence (P35869 whole entry): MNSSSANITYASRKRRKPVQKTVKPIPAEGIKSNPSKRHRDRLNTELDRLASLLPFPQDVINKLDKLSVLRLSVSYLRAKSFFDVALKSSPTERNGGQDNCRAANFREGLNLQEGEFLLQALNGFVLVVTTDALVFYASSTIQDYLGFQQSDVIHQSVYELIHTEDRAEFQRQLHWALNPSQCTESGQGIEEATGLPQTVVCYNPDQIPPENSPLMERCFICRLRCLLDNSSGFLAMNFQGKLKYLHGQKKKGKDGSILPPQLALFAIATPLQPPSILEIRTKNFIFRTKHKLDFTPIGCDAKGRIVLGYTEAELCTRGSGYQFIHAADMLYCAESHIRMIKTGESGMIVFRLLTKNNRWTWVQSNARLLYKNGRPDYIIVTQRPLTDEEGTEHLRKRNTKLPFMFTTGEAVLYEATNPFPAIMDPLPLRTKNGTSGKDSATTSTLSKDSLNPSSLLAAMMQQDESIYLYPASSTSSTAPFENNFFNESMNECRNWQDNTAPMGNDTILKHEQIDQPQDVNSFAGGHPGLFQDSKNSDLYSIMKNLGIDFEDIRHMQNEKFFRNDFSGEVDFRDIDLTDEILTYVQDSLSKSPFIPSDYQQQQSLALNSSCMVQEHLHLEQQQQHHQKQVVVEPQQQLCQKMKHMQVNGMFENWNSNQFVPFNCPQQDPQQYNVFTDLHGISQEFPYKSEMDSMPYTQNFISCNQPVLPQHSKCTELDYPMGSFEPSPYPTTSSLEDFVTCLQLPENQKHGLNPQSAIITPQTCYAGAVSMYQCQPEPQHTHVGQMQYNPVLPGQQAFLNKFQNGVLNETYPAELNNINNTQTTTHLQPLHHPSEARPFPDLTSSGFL
Assay: Agonist activity at AHR in human AZ-AHR stable HepG2 cells by Luciferase reporter assay
pEC50: −log10 of the molar value.

{"compound": "OC(c1ccncc1)(c1cc2ccccc2[nH]1)c1cc2ccccc2[nH]1", "pEC50": 5.80}
{"compound": "CCOn1c(C(O)(c2ccncc2)c2cc3ccccc3[nH]2)cc2ccccc21 (configuration not stated)", "pEC50": 5.80}

---

Target: Aryl hydrocarbon receptor (Homo sapiens, UniProt P35869)
Assay: Agonist activity at AHR in human HepG2 cells incubated for 4.5 hrs by Luciferase reporter assay
Assay type: cell-based
pEC50: −log10 of the molar value.

{"sample smiles": "N#Cc1cccc(C(=O)c2c[nH]c3ccccc23)n1", "pEC50": 8.70}
{"sample smiles": "O=C(c1cccc(C(F)(F)F)n1)c1c[nH]c2ccccc12", "pEC50": 8.70}
